Values from a melting point compilation (Tetko et al.; mined from patent text by program, amines drawn as free bases though some values may be those of a salt)

melting point for assorted compounds
measured-metric: melting point

{"columns": ["compound", "measured-metric", "recorded-result"],
 "data": [
  ["Oc1ccc(-c2nnc(CSCCOc3ccccc3)o2)cc1", "melting point", "172 to 175 °C"],
  ["CC(=O)n1cnc2c(CBr)cccc21", "melting point", "109 to 112 °C"],
  ["Cc1ccc(-c2c(NS(=O)(=O)c3ccc(C(C)(C)C)cc3)nc(NCCO)nc2OCCOCc2ccccc2)cc1", "melting point", "124 to 126 °C"],
  ["CN(C)CC#Cc1cnc2c(c1)N(Cc1cc(Cl)ccc1Cl)CCN2", "melting point", "168 °C"],
  ["Cn1ncnc1COc1nc2c(cc1-c1ccccc1)nnn2-c1ccccc1F", "melting point", "144 to 146 °C"],
  ["O=C(O)CCCCN1C(=O)c2ccc([N+](=O)[O-])cc2C1=O", "melting point", "172 °C"],
  ["O=C1CCC(c2ccccc2)(c2ccccc2)[C@@H]2CN(C(=O)Cc3ccccc3C(F)(F)F)C[C@H]12 (racemic)", "melting point", "207 °C"],
  ["CC(CC#N)Nc1cc(Oc2ccc(S(=O)(=O)C(C)C)cc2Cl)ccc1[N+](=O)[O-] (stereo unspecified)", "melting point", "132 °C"],
  ["Oc1ccccc1CCCC1CCNCC1", "melting point", "152 °C"],
  ["O=C(NC(=O)c1c(F)cccc1F)Nc1cc(Cl)c(Cl)c(Cl)c1", "melting point", "231 to 232 °C"],
  ["COC(=O)c1cccc2nc(SCCCCCCCCC(=O)Nc3c(SC)cc(C)nc3SC)oc12", "melting point", "126 to 128 °C"],
  ["CCCc1cn(CC(=O)O)nc1OCCCc1cn(-c2ccc(C(F)(F)F)cn2)nc1CCC", "melting point", "138 to 139 °C"],
  ["CCC(C)n1ncn(-c2ccc(N3CCN(c4ccc(OC)cc4)CC3)c(Br)c2)c1=O (stereo unspecified)", "melting point", "145 °C"],
  ["COc1cccc(CCS(=O)c2nc3cnccc3[nH]2)c1 (stereo unspecified)", "melting point", "125 to 128 °C"],
  ["COCCOc1cc2ncc(C#N)c(NC3=CC(=O)C(C)=CC3=O)c2cc1OC", "melting point", "174 to 177 °C"],
  ["CC(=O)Nc1c(Cl)cc(CC(=O)O)cc1Cl", "melting point", "209 to 211 °C"]
]}
